Assignment: determine reported Emax for the given compounds.
Molecular target: recombinant human Meningioma Expressed Antigen 5 (MGEA5), also referred to as O-GlcNAcase (OGA) (Homo sapiens)
Construct: Full length OGA enzyme was purchased at OriGene (cat #TP322411); purchased OriGene TP322411
Assay: OGA biochemical assay (inhibition of FM-GlcNAc hydrolysis, fluorescence)
Conditions: read-out: Enzymatic Emax (%)
Provide the reading as a plain figure in %.

I have this compound here, CC(c1nc2c(cc1F)OCCO2)N1CCC(Oc2ccnc(C#N)c2)CC1 (centres unmarked) , and I need its recorded Emax.
94

Same thing, different compound: CC(c1nc2c(cc1F)OCCO2)N1CCC(Oc2ccc(C#N)cn2)CC1 (centres unmarked)
99

Same thing, different compound: Cc1cc(COC2CCN(C(C)c3ccc4c(n3)OCCO4)CC2)cc(C)n1 (centres unmarked)
97

Same thing, different compound: Cc1nccnc1OC1CCN(C(C)c2nc3c(cc2F)OCCO3)CC1 (centres unmarked)
98

Same thing, different compound: Cc1ccnc(OC2CCN(C(C)c3ccc4c(n3)OCCO4)CC2)c1 (centres unmarked)
98

Same thing, different compound: Cc1cc(OC2CCN(C(C)c3cnc4c(c3)OCCO4)CC2)cc(C)n1 (centres unmarked)
93

Same thing, different compound: Cc1cc(C(F)(F)F)cc(OC2CCN(C(C)c3nc4c(cc3F)OCCO4)CC2)n1 (centres unmarked)
98

Same thing, different compound: CCc1cc(OC2CCN(C(C)c3ccc4c(n3)OCCO4)CC2)cc(C)n1 (centres unmarked)
97

Same thing, different compound: Cc1cc(OC2CCN(C(C)c3nc4nc(C)sc4cc3F)CC2)nc(C)n1 (centres unmarked)
100

Same thing, different compound: Cc1cc(OC2CCN(C(C)c3ccc4c(n3)OCC4)CC2)cc(C)n1 (centres unmarked)
95

Same thing, different compound: Cc1cccnc1OC1CCN(C(C)c2ccc3c(n2)OCCO3)CC1 (centres unmarked)
98

Same thing, different compound: Cc1ncc(OC2CCN(C(C)c3nc4c(cc3F)CCO4)CC2)cn1 (centres unmarked)
96

Same thing, different compound: Cc1cc(OC2CCN(C(C)c3cc4nc(C)sc4cc3F)CC2)nc(C)n1 (centres unmarked)
101

Same thing, different compound: Cc1ncccc1OC1CCN(C(C)c2ccc3c(n2)OCCO3)CC1 (centres unmarked)
96

Same thing, different compound: CC(c1nc2c(cc1F)OCCO2)N1CCC(Oc2ccc(C(F)(F)F)nn2)CC1 (centres unmarked)
101

Same thing, different compound: CC(c1ccc2c(n1)OCCO2)N1CCC(Oc2ncccc2C#N)CC1 (centres unmarked)
95

Same thing, different compound: Cc1cc(OC2CCN([C@H](C)c3nc4nc(C)sc4cc3F)CC2)cc(C)n1 (single isomer, unassigned)
97

Same thing, different compound: Cc1cnc(OC2CCN(C(C)c3ccc4c(n3)OCCO4)CC2)cn1 (centres unmarked)
97

Same thing, different compound: CC(c1ccc2c(n1)OCCO2)N1CCC(COc2ccc(C(F)(F)F)cn2)CC1 (centres unmarked)
96

Same thing, different compound: Cc1cc(OC2CCN(C(C)c3nc4c(cc3F)CCO4)CC2)cc(C)n1 (centres unmarked)
101

Same thing, different compound: Cc1ccc(NC2CCN(C(C)c3nc4c(cc3F)OCCO4)CC2)cn1 (centres unmarked)
99

Same thing, different compound: CC(c1nc2c(cc1F)OCCO2)N1CCC(Oc2cnc(C(F)(F)F)nc2)CC1 (centres unmarked)
96

Same thing, different compound: Cc1ncc(OC2CCN(C(C)c3ccc4c(c3)OCO4)CC2)cn1.Cl (centres unmarked)
100

Same thing, different compound: CC(c1ccc2c(n1)OCCO2)N1CCC(Oc2ccc(C(F)(F)F)nc2)CC1 (centres unmarked)
94

Same thing, different compound: COc1cc(C#N)cnc1OC1CCN(C(C)c2ccc3c(n2)OCCO3)CC1 (centres unmarked)
95

Same thing, different compound: Cc1cc(COC2CCN(C(C)c3nc4c(cc3F)OCCO4)CC2)cc(C(F)(F)F)n1 (centres unmarked)
96

Same thing, different compound: CCOc1cc(OC2CCN(C(C)c3ccc4c(n3)OCCO4)CC2)cc(C)n1.Cl (centres unmarked)
104

Same thing, different compound: COc1cc(OC2CCN(C(C)c3ccc4sc(C)nc4n3)CC2)cc(C)n1 (centres unmarked)
99

Same thing, different compound: Cc1cc(OC2CCN(C(C)c3ccc4c(n3)OCCO4)CC2)nc(C)n1 (single isomer, unassigned) [Compound 10]
100

Same thing, different compound: Cc1cc(O[C@H]2CCN(C(C)c3ccc4c(n3)OCCO4)C[C@H]2C)cc(C)n1 (some centres unmarked)
101

Same thing, different compound: Cc1cc(C)c(OC2CCN(C(C)c3nc4c(cc3F)OCCO4)CC2)nn1 (centres unmarked)
98

Same thing, different compound: CC(c1nc2c(cc1F)OCCO2)N1CCC(Oc2ccc(C(=O)N(C(C)C)C(C)C)nc2)CC1 (centres unmarked)
93

Same thing, different compound: COc1nccnc1OC1CCN(C(C)c2ccc3c(n2)OCCO3)CC1 (centres unmarked)
101

Same thing, different compound: COc1cc(OC2CCN(C(C)c3cnc4c(c3)OCCO4)CC2)cc(C)n1 (centres unmarked)
98

Same thing, different compound: Cc1cncc(OC2CCN(C(C)c3ccc4c(n3)OCCO4)CC2)c1 (centres unmarked)
99

----------
Biological target: recombinant human Meningioma Expressed Antigen 5 (MGEA5), also referred to as O-GlcNAcase (OGA) (Homo sapiens)
Construct: Full length OGA enzyme was purchased at OriGene (cat #TP322411); purchased OriGene TP322411
Assay: OGA biochemical assay (inhibition of FM-GlcNAc hydrolysis, fluorescence)
Conditions: read-out: Enzymatic Emax (%)
Readout kind: Emax (%)
Provide the reading as a plain figure in %.

I have this compound here, Cc1cc(NC2CCN(C(C)c3nc4c(cc3F)OCCO4)CC2)cc(C)n1 (centres unmarked) , and I need its recorded Emax.
97

Same thing, different compound: Cc1cc(OC2(CF)CCN(C(C)c3ccc4c(n3)OCCO4)CC2)cc(C)n1 (centres unmarked)
63

Same thing, different compound: "Cc1cc(COC2CCN(Cc3ccc4sc(C)nc4n3)CC2)cc(C)n1"
90

Same thing, different compound: Cc1nc(OC2CCN(C(C)c3nc4c(cc3F)OCCO4)CC2)ccc1C#N (centres unmarked)
96

Same thing, different compound: Cc1cc(OC2CCN(C(C)c3nc4c(cc3F)OCCO4)CC2)cc(C(F)(F)F)n1 (centres unmarked)
101

----------
Target: recombinant human Meningioma Expressed Antigen 5 (MGEA5), also referred to as O-GlcNAcase (OGA) (Homo sapiens)
Construct: Full length OGA enzyme was purchased at OriGene (cat #TP322411); purchased OriGene TP322411
Test: OGA biochemical assay (inhibition of FM-GlcNAc hydrolysis, fluorescence)
Settings: read-out: Enzymatic hOGA, pIC50 (converted)
Consider the cut-off 20 nM. If the recorded IC50 is strictly smaller, the label is Criterion met; if not, the label is Criterion not met.

# check: IC50 < 20 nM for Cc1ccc(OC2CCN(C(C)c3ccc4c(n3)OCCO4)CC2)cn1 (centres unmarked)
Criterion not met

Same thing, different molecule: Cc1cc(OC2CCN(C(C)c3cnc4sc(C)nc4c3)CC2)cc(C)n1 (centres unmarked)
Criterion not met

Same thing, different molecule: COc1cc(OC2CCN([C@H](C)c3nc4nc(C)sc4cc3F)CC2)cc(C)n1 (single isomer, unassigned)
Criterion not met

Same thing, different molecule: Cc1cc(OC2CCN([C@H](C)c3nc4c(cc3F)CCO4)CC2)cc(C)n1 (single isomer, unassigned) [Compound 143]
Criterion met

Same thing, different molecule: Cc1cc(OC2CCN(C(C)c3nc4c(cc3F)OCCO4)CC2)ncc1C#N (centres unmarked)
Criterion met

Same thing, different molecule: Cc1cc(OC2CCN(C(C)c3nc4c(cc3F)OCCO4)CC2)cc(C)n1 (centres unmarked)
Criterion met

Same thing, different molecule: C[C@@H](c1nc2c(cc1F)OCCO2)N1CCC(Oc2ccc(C#N)nn2)CC1 (single isomer, unassigned)
Criterion met

Same thing, different molecule: Cc1ncc(OC2CCN(C(C)c3ccc4c(n3)OCCO4)CC2)cc1F (centres unmarked)
Criterion not met

----------
Molecular target: OGA (Homo sapiens)
Construct: HEK293 cells inducible for P301L mutant human Tau (isoform 2N4R) were established at Janssen; endogenous in cells; host or cells: HEK293 cells inducible for P301L mutant human Tau (2N4R)
Test: OGA cellular assay (ICC detection of O-GlcNAcylated proteins in HEK293 cells inducible for P301L mutant human Tau)
Assay type: cell-based
Details: HEK293, HEK293 cells inducible for P301L mutant human Tau, 6 hours incubation; maximum = Thiamet G 200 uM
Assignment: determine reported Emax for the given molecules.

I have this molecule here, C[C@@H](c1nc2c(cc1F)OCCO2)N1CCC(Oc2ccc(C#N)nn2)CC1 (single isomer, unassigned) , and I need its recorded Emax.
100%

Same thing, different molecule: COc1cc(COC2CCN(C(C)c3nc4c(cc3F)OCCO4)CC2)cc(C)n1 (stereo not drawn)
81%

Same thing, different molecule: CC(c1ccc2c(n1)OCCO2)N1CCC(Oc2ccc(F)cn2)CC1 (stereo not drawn)
25%

Same thing, different molecule: Cc1ncc(OC2CCN(C(C)c3nc4c(cc3F)OCCO4)CC2)nc1C (stereo not drawn)
79%

Same thing, different molecule: Cc1cc(OC2CCN(C(C)c3ccc4c(n3)OCCO4)CC2)c(F)c(C)n1 (stereo not drawn)
59%

Same thing, different molecule: CC(c1ccc2c(n1)OCCO2)N1CCC(C)(Oc2ccc(F)cc2)CC1 (stereo not drawn)
-4%

Same thing, different molecule: Cc1cc(OC2CCN(C(C)c3cnc4c(c3)OCC4)CC2)cc(C)n1 (stereo not drawn)
38%

Same thing, different molecule: Cc1ncc(OC2CCN(C(C)c3ccc4c(c3)OCO4)CC2)cn1.Cl (stereo not drawn)
15%

Same thing, different molecule: Cc1cc(OC2CCN(C(C)c3nc4c(cc3F)OCCO4)CC2)ncc1C#N (stereo not drawn)
83%

Same thing, different molecule: CC(c1ccc2c(n1)OCCO2)N1CCC(Oc2ncc(C#N)cc2F)CC1 (stereo not drawn)
16%

Same thing, different molecule: Cc1ncc(OC2CCN(C(C)c3ccc4c(n3)OCCO4)CC2)cc1F (stereo not drawn)
42%

Same thing, different molecule: Cc1cc(OC2CCN([C@@H](C)c3ccc4c(n3)OCC4)CC2)cc(C)n1 (single isomer, unassigned)
6%

Same thing, different molecule: Cc1ncc(COC2CCN(C(C)c3nc4c(cc3F)OCCO4)CC2)cn1 (single isomer, unassigned) [Compound 136]
81%

Same thing, different molecule: CCOc1cc(OC2CCN(C(C)c3ccc4c(n3)OCCO4)CC2)cc(C)n1.Cl (stereo not drawn)
73%

Same thing, different molecule: Cc1ccc(OC2CCN(C(C)c3ccc4c(n3)OCCO4)CC2)cn1 (stereo not drawn)
74%

Same thing, different molecule: Cc1cc(OC2CCN(C(C)c3cnc4c(c3)OCCO4)CC2)cc(C)n1 (stereo not drawn)
22%

Same thing, different molecule: C[C@H](c1nc2c(cc1F)OCCO2)N1CCC(Oc2ccc(C#N)nn2)CC1 (single isomer, unassigned)
-3%

Same thing, different molecule: Cc1cc(OC2CCN([C@H](C)c3ccc4c(n3)OCC4)CC2)cc(C)n1 (single isomer, unassigned)
87%

Same thing, different molecule: Cc1cc(OC2CCN(C(C)c3cnc4c(c3)OCCO4)CC2)nc(C)n1 (stereo not drawn)
8%

Same thing, different molecule: Cc1cc(OC2CCN([C@@H](C)c3nc4c(cc3F)OCCO4)CC2)cc(C)n1 (single isomer, unassigned)
-2%

Same thing, different molecule: Cc1cc(NC2CCN(C(C)c3ccc4c(n3)OCCO4)CC2)cc(C)n1 (stereo not drawn)
55%

Same thing, different molecule: COc1cc(OC2CCN(C(C)c3cnc4c(c3)OCCO4)CC2)cc(C)n1 (stereo not drawn)
23%

Same thing, different molecule: Cc1ccc(OC2CCN(C(C)c3nc4c(cc3F)OCCO4)CC2)cn1 (stereo not drawn)
82%

Same thing, different molecule: Cc1cnc(OC2CCN(C(C)c3ccc4c(n3)OCCO4)CC2)cn1 (stereo not drawn)
51%

Same thing, different molecule: CC(c1ccc2c(n1)OCCO2)N1CCC(Oc2cnc(C(F)(F)F)cn2)CC1 (stereo not drawn)
31%

Same thing, different molecule: Cc1ccc(OC2CCN(C(C)c3ccc4c(n3)OCCO4)CC2)nn1.Cl (stereo not drawn)
30%

Same thing, different molecule: Cc1cc(OC2CCN(C(C)c3ccc4c(n3)OCCO4)CC2)cc(C2CC2)n1 (stereo not drawn)
91%

Same thing, different molecule: Cc1cc(OC2CCN(C(C)c3ccc4c(n3)OCCO4)CC2)cc(C(F)(F)F)n1 (stereo not drawn)
61%

Same thing, different molecule: Cc1cc(COC2CCN(C(C)c3nc4nc(C)sc4cc3F)CC2)cc(C)n1 (stereo not drawn)
87%

Same thing, different molecule: Cc1cc(OC2CCN(C(C)c3nc4nc(C)sc4cc3F)CC2)cc(C)n1 (stereo not drawn)
72%

Same thing, different molecule: CC(c1ccc2c(n1)OCCO2)N1CCC(Oc2ccncc2C#N)CC1 (stereo not drawn)
12%

Same thing, different molecule: Cc1cc(OC2CCN(C(C)c3nc4c(cc3F)CCO4)CC2)c(Cl)c(C)n1 (stereo not drawn)
98%

Same thing, different molecule: Cc1cc(OC2CCN(C(C)c3nc4c(cc3F)OCCO4)CC2)cc(C(F)(F)F)n1 (stereo not drawn)
79%

Data credit: patent US20210122763A1
